Origin of measurements: patent US12715858B2

# Method Summary: Solubility in water and bio-relevant media at 37° C. (HPLC of filtrate, pH of filtrate, XRPD of filter cake)
# Type: physicochemical
# Settings: pH of the filtrate, SIF, 2 h
Measurement Label: PH 2 h

Illustrative cases are given below, each with its answer.
* Cc1nn(-c2cc(Cl)c(Oc3cc(C(C)C)c(=O)[nH]n3)c(Cl)c2)c(=O)[n-]c1=O.[K+] [Potassium salt Form 1] | 7.52
* Cc1nn(-c2cc(Cl)c(Oc3cc(C(C)C)c(=O)[nH]n3)c(Cl)c2)c(=O)[n-]c1=O.[Na+] [Sodium salt Form A] | 7.60
* Cc1nn(-c2cc(Cl)c(Oc3cc(C(C)C)c(=O)[nH]n3)c(Cl)c2)c(=O)[n-]c1=O.[K+] [Potassium salt Form 2] | 7.51

Below: the item to evaluate.
Please report the recorded PH 2 h for Cc1nn(-c2cc(Cl)c(Oc3cc(C(C)C)c(=O)[nH]n3)c(Cl)c2)c(=O)[nH]c1=O [Free acid Form I] .
6.86

---

# Method Summary: Solubility in water and bio-relevant media at 37° C. (HPLC of filtrate, pH of filtrate, XRPD of filter cake)
# Type: physicochemical
# Settings: pH of the filtrate, SGF, 2 h
Measurement Label: PH 2 h
Kindly provide the number alone.

Example entries and their recorded answers appear below.
- Cc1nn(-c2cc(Cl)c(Oc3cc(C(C)C)c(=O)[nH]n3)c(Cl)c2)c(=O)[n-]c1=O.[K+] [Potassium salt Form 2]: 1.25
- Cc1nn(-c2cc(Cl)c(Oc3cc(C(C)C)c(=O)[nH]n3)c(Cl)c2)c(=O)[n-]c1=O.[K+] [Potassium salt Form 1]: 1.26
- Cc1nn(-c2cc(Cl)c(Oc3cc(C(C)C)c(=O)[nH]n3)c(Cl)c2)c(=O)[n-]c1=O.[Na+] [Sodium salt Form A]: 1.24

Shift focus to the following entry.
Query: PH 2 h; subject: Cc1nn(-c2cc(Cl)c(Oc3cc(C(C)C)c(=O)[nH]n3)c(Cl)c2)c(=O)[nH]c1=O [Free acid Form I]
1.19

---

# Method Summary: Dynamic Vapor Sorption (DVS)
# Format: physicochemical
# Settings: at 80% RH (Form I: 0 to 80% RH), 25° C.
Measurement Label: water uptake / weight gain by DVS (%)
Expressed in %, but write only the number.

Past entries and their recorded results:
• Cc1nn(-c2cc(Cl)c(Oc3cc(C(C)C)c(=O)[nH]n3)c(Cl)c2)c(=O)[n-]c1=O.[K+] [Potassium salt Form 2] = 1.6
• Cc1nn(-c2cc(Cl)c(Oc3cc(C(C)C)c(=O)[nH]n3)c(Cl)c2)c(=O)[n-]c1=O.[K+] [Potassium salt Form 1] = 1.8

The record that follows has no water uptake / weight gain by DVS shown yet.
Could you share which water uptake / weight gain by DVS value was measured for Cc1nn(-c2cc(Cl)c(Oc3cc(C(C)C)c(=O)[nH]n3)c(Cl)c2)c(=O)[nH]c1=O [Free acid Form I] ?
0.9

---

# Method Summary: Solubility in water and bio-relevant media at 37° C. (HPLC of filtrate, pH of filtrate, XRPD of filter cake)
# Type: physicochemical
# Settings: FeSSIF (Fed State Simulated Intestinal Fluid), 37 °C, fessif, thermodynamic from solid, FeSSIF, 37° C., 0.5 h; read-out: Solubility (mg/mL) 0.5 h
Measurement Label: solubility at 0.5 h (mg/mL)
Use mg/mL as the unit, but write only the number.

Dear colleague, I am looking for the recorded solubility at 0.5 h of the following molecule: Cc1nn(-c2cc(Cl)c(Oc3cc(C(C)C)c(=O)[nH]n3)c(Cl)c2)c(=O)[n-]c1=O.[Na+] [Sodium salt Form A]
0.0011

---

# Method Summary: Dynamic Vapor Sorption (DVS)
# Assay type: physicochemical
# Settings: DVS
Measurement Label: hygroscopicity

• Cc1nn(-c2cc(Cl)c(Oc3cc(C(C)C)c(=O)[nH]n3)c(Cl)c2)c(=O)[n-]c1=O.[K+] [Potassium salt Form 2] = slight hygroscopic
• Cc1nn(-c2cc(Cl)c(Oc3cc(C(C)C)c(=O)[nH]n3)c(Cl)c2)c(=O)[nH]c1=O [Free acid Form I] = slightly hygroscopic
• Cc1nn(-c2cc(Cl)c(Oc3cc(C(C)C)c(=O)[nH]n3)c(Cl)c2)c(=O)[n-]c1=O.[Na+] [Sodium salt Form A] = slightly hygroscopic
• Cc1nn(-c2cc(Cl)c(Oc3cc(C(C)C)c(=O)[nH]n3)c(Cl)c2)c(=O)[n-]c1=O.[K+] [Potassium salt Form 1] = slight hygroscopic

---

# Method Summary: Solubility in water and bio-relevant media at 37° C. (HPLC of filtrate, pH of filtrate, XRPD of filter cake)
# Format: physicochemical
# Settings: FaSSIF (Fasted State Simulated Intestinal Fluid), thermodynamic from solid; FaSSIF, 37° C., 24 h; read-out: Solubility (mg/mL) 24 h
Measurement Label: solubility at 24 h (mg/mL)
Give a bare numeral; the unit mg/mL is implied.

Name the recorded solubility at 24 h for Cc1nn(-c2cc(Cl)c(Oc3cc(C(C)C)c(=O)[nH]n3)c(Cl)c2)c(=O)[nH]c1=O [Free acid Form I] .
0.00052

---

# Method Summary: Solubility in water and bio-relevant media at 37° C. (HPLC of filtrate, pH of filtrate, XRPD of filter cake)
# Type: physicochemical
# Settings: water, 37 °C, water, thermodynamic from solid, Water, 37° C., 0.5 h; LOQ is 0.5 μg/mL; read-out: Solubility (mg/mL) 0.5 h
Measurement Label: solubility at 0.5 h (mg/mL)
Number only, in mg/mL; omit the unit.

• Cc1nn(-c2cc(Cl)c(Oc3cc(C(C)C)c(=O)[nH]n3)c(Cl)c2)c(=O)[n-]c1=O.[K+] [Potassium salt Form 1] = 5.79

Next molecule, solubility at 0.5 h to be filled in.
So what's the measured solubility at 0.5 h for this one? Cc1nn(-c2cc(Cl)c(Oc3cc(C(C)C)c(=O)[nH]n3)c(Cl)c2)c(=O)[n-]c1=O.[Na+] [Sodium salt Form A]
2.8

---

# Method Summary: Solubility in water and bio-relevant media at 37° C. (HPLC of filtrate, pH of filtrate, XRPD of filter cake)
# Assay type: physicochemical
# Settings: SGF, 37° C., 0.5 h; LOQ is 0.5 μg/mL
Measurement Label: Solubility (mg/mL) 0.5 h

• Cc1nn(-c2cc(Cl)c(Oc3cc(C(C)C)c(=O)[nH]n3)c(Cl)c2)c(=O)[n-]c1=O.[Na+] [Sodium salt Form A] = <LOQ
• Cc1nn(-c2cc(Cl)c(Oc3cc(C(C)C)c(=O)[nH]n3)c(Cl)c2)c(=O)[nH]c1=O [Free acid Form I] = <LOQ
• Cc1nn(-c2cc(Cl)c(Oc3cc(C(C)C)c(=O)[nH]n3)c(Cl)c2)c(=O)[n-]c1=O.[K+] [Potassium salt Form 1] = <LOQ
• Cc1nn(-c2cc(Cl)c(Oc3cc(C(C)C)c(=O)[nH]n3)c(Cl)c2)c(=O)[n-]c1=O.[K+] [Potassium salt Form 2] = <LOQ

---

# Method Summary: Solubility in water and bio-relevant media at 37° C. (HPLC of filtrate, pH of filtrate, XRPD of filter cake)
# Assay type: physicochemical
# Settings: FaSSIF (Fasted State Simulated Intestinal Fluid), 37 °C, fassif, thermodynamic from solid, FaSSIF, 37° C., 0.5 h; LOQ is 0.5 μg/mL; read-out: Solubility (mg/mL) 0.5 h
Measurement Label: solubility at 0.5 h (mg/mL)
The figure you give is taken to be in mg/mL; do not add the unit.

- Cc1nn(-c2cc(Cl)c(Oc3cc(C(C)C)c(=O)[nH]n3)c(Cl)c2)c(=O)[n-]c1=O.[K+] [Potassium salt Form 2]: 0.0011

Now look at this one.
Please report the recorded solubility at 0.5 h for Cc1nn(-c2cc(Cl)c(Oc3cc(C(C)C)c(=O)[nH]n3)c(Cl)c2)c(=O)[n-]c1=O.[Na+] [Sodium salt Form A] .
0.0013

---

# Method Summary: Solubility in water and bio-relevant media at 37° C. (HPLC of filtrate, pH of filtrate, XRPD of filter cake)
# Type: physicochemical
# Settings: pH of the filtrate, FaSSIF, 24 h
PH 24 h values for the compounds below.
Form rule: numeric answer, no unit written next to it.

- Cc1nn(-c2cc(Cl)c(Oc3cc(C(C)C)c(=O)[nH]n3)c(Cl)c2)c(=O)[n-]c1=O.[Na+] [Sodium salt Form A]: 8.27

Can you look up the measured PH 24 h of Cc1nn(-c2cc(Cl)c(Oc3cc(C(C)C)c(=O)[nH]n3)c(Cl)c2)c(=O)[n-]c1=O.[K+] [Potassium salt Form 1] for me?
8.29

# query: PH 24 h of entry Cc1nn(-c2cc(Cl)c(Oc3cc(C(C)C)c(=O)[nH]n3)c(Cl)c2)c(=O)[n-]c1=O.[K+] [Potassium salt Form 2]
7.90

If you can, please state the reported PH 24 h value of Cc1nn(-c2cc(Cl)c(Oc3cc(C(C)C)c(=O)[nH]n3)c(Cl)c2)c(=O)[nH]c1=O [Free acid Form I] .
6.74
